Data provenance: patent US9663496B2

Item-by-item account of pEC50
Molecular target: AMPK
Experiment: AMPK activation, enzyme-linked immunosorbent assay
Conditions: EC50 for AMPK activation, ELISA
Method: Compounds were assayed for their ability to activate AMPK using an enzyme-linked immunosorbent assay. Reagents and procedures for measuring AMPK activation are well known and kits for AMPK activation assays are commercially available.
pEC50: −log10 of the molar value.

[
  {
    "molecule": "N#Cc1ccc(CN2CCC(NC(=O)c3ccc(C(=O)N4CCC(Oc5ccc([N+](=O)[O-])cc5)CC4)nc3)CC2)cc1",
    "systemUnderTest": "AMPK",
    "pEC50": "> 6.30"
  },
  {
    "molecule": "CS(=O)(=O)c1ccc(C(=O)C2CCN(C(=O)c3ccc(C(=O)N[C@@H]4CCN(Cc5ccc(C#N)cc5)C[C@H]4F)nc3)CC2)cc1 (relative stereo)",
    "systemUnderTest": "AMPK",
    "pEC50": "6.00 to 6.30"
  },
  {
    "molecule": "O=C(Nc1ccc(Oc2ccc(F)cc2)nc1)c1cnc(C(=O)N2CCC(Oc3ccc(C(F)(F)F)cc3)CC2)cn1",
    "systemUnderTest": "AMPK",
    "pEC50": "> 6.30"
  },
  {
    "molecule": "N#Cc1ccc(CN2CCC(NC(=O)c3ccc(C(=O)N4CCCC(Oc5ccc(C#N)cc5)C4)cn3)CC2)cc1 (stereo not shown)",
    "systemUnderTest": "AMPK",
    "pEC50": "> 6.30"
  },
  {
    "molecule": "O=C(NC1CCN(Cc2ccc(N3CCCC3)cc2)CC1)c1ccc(C(=O)N2CCC(C(=O)c3ccc(N4CCCC4)cc3)CC2)nc1",
    "systemUnderTest": "AMPK",
    "pEC50": "> 6.30"
  },
  {
    "molecule": "COc1ccc(C(=O)C2CCN(C(=O)c3ccc(C(=O)Nc4ccc(Oc5ccc(C#N)cc5)nc4C)cn3)CC2)cc1",
    "systemUnderTest": "AMPK",
    "pEC50": "> 6.30"
  },
  {
    "molecule": "N#Cc1ccc(CN2CCC(NC(=O)c3ccc(C(=O)N4CCC(C(=O)c5ccc(-n6cccn6)cc5)CC4)cn3)CC2)cc1",
    "systemUnderTest": "AMPK",
    "pEC50": "> 6.30"
  },
  {
    "molecule": "COc1ccc(C(=O)C2CCN(C(=O)c3ccc(C(=O)N[C@H]4CC[C@@H](Oc5cc(F)cc(F)c5)CC4)nc3)CC2)cc1",
    "systemUnderTest": "AMPK",
    "pEC50": "> 6.30"
  },
  {
    "molecule": "N#Cc1ccc(CN2CCC(NC(=O)c3ccc(NC4CCN(c5ccccc5)CC4)cn3)CC2)cc1",
    "systemUnderTest": "AMPK",
    "pEC50": "> 6.30"
  },
  {
    "molecule": "CS(=O)(=O)c1ccc(OC2CCN(C(=O)c3ccc(C(=O)NC4CCC(Oc5ccc(C#N)cc5)CC4)cn3)CC2)cc1 (stereo not shown)",
    "systemUnderTest": "AMPK",
    "pEC50": "> 6.30"
  },
  {
    "molecule": "O=C(N[C@@H]1CCN(Cc2ccncc2)C[C@@H]1F)c1ccc(C(=O)N2CCN(Cc3ccc(F)cc3)CC2)cn1 (relative stereo)",
    "systemUnderTest": "AMPK",
    "pEC50": "> 6.30"
  },
  {
    "molecule": "O=C(N[C@@H]1CCNC[C@@H]1F)c1ccc(C(=O)N2CCN(Cc3ccc(F)cc3)CC2)cn1 (relative stereo)",
    "systemUnderTest": "AMPK",
    "pEC50": "5.00 to 5.30"
  },
  {
    "molecule": "CC(=O)c1ccc(Oc2ccc(NC(=O)c3ccc(C(=O)N4CCC(Oc5ccc(S(C)(=O)=O)cc5)CC4)nc3)cn2)cc1",
    "systemUnderTest": "AMPK",
    "pEC50": "> 6.30"
  }
]

###

Molecular target: AMPK
Assay: AMPK activation, enzyme-linked immunosorbent assay
Conditions: EC50 for AMPK activation, ELISA
Listed next: entries and their corresponding EC50.
quantityMeasured: EC50

[
  {
    "structureAsSmiles": "N#Cc1ccc(CN2CCC(NC(=O)c3ccc(C(=O)N4CCN(c5ccc(C(=O)C(F)(F)F)cc5)CC4)cn3)CC2)cc1",
    "result": "< 500 nM"
  },
  {
    "structureAsSmiles": "CS(=O)(=O)c1ccc(OC2CCN(C(=O)c3ccc(C(=O)NC4CCN(Cc5ccc(F)cc5)CC4)cn3)CC2)cc1",
    "result": "1000 to 5000 nM"
  },
  {
    "structureAsSmiles": "CC(=O)c1ccc(Oc2ccc(NC(=O)c3ccc(C(=O)N4CCC(Oc5ccc(S(C)(=O)=O)cc5)CC4)cn3)cn2)cc1",
    "result": "< 500 nM"
  },
  {
    "structureAsSmiles": "O=C(NC1CCN(Cc2ccc(N3CCCC3)cc2)CC1)c1ccc(C(=O)N2CCC(Oc3ccc(F)cc3)CC2)cn1",
    "result": "< 500 nM"
  },
  {
    "structureAsSmiles": "CC(=O)Nc1ccc(OC2CCN(C(=O)c3ccc(C(=O)Nc4ccc(Oc5ccc(F)cc5)nc4)nc3)CC2)cc1",
    "result": "< 500 nM"
  },
  {
    "structureAsSmiles": "CS(=O)(=O)c1ccc(OC2CCN(C(=O)c3ccc(C(=O)NC4CCN(Cc5cc(F)cc(F)c5)CC4)cn3)CC2)cc1",
    "result": "< 500 nM"
  },
  {
    "structureAsSmiles": "COc1ccc(CN2CCC(NC(=O)c3ccc(C(=O)N4CCC(Oc5ccc(C(=O)C6CC6)cc5)CC4)nc3)CC2)cc1",
    "result": "< 500 nM"
  }
]

###

// values below are reported EC50
Target: AMPK
Assay: AMPK activation, enzyme-linked immunosorbent assay
Conditions: EC50 for AMPK activation, ELISA
quantityMeasured: EC50

[
  {
    "structureAsSmiles": "O=C(Nc1ccc(Oc2ccc(F)cc2)nc1)c1ccc(C(=O)N2CCC(C(=O)c3ccc(N4CCOCC4)cc3)CC2)cn1",
    "systemUnderTest": "AMPK",
    "result": "< 500 nM"
  },
  {
    "structureAsSmiles": "N#Cc1ccc(CN2CCC(NC(=O)c3ccc(C(=O)N4CCC(Oc5ccc(S(F)(F)(F)(F)F)cc5)CC4)cn3)CC2)cc1",
    "systemUnderTest": "AMPK",
    "result": "< 500 nM"
  },
  {
    "structureAsSmiles": "N#Cc1ccc(CN2CCC(C(=O)Nc3ccc(C(=O)N4CCC(Oc5ccc(F)cc5)CC4)cn3)CC2)cc1",
    "systemUnderTest": "AMPK",
    "result": "< 500 nM"
  },
  {
    "structureAsSmiles": "N#Cc1ccc(CN2CCC(NC(=O)c3ccc(C(=O)N4CCN(Cc5ccncc5)CC4)cn3)CC2)cc1",
    "systemUnderTest": "AMPK",
    "result": "< 500 nM"
  },
  {
    "structureAsSmiles": "CN1CCN(c2ccc(C(=O)C3CCN(C(=O)c4ccc(C(=O)NC5CCN(Cc6ccc(C#N)cc6)CC5)nc4)CC3)cc2)CC1",
    "systemUnderTest": "AMPK",
    "result": "< 500 nM"
  },
  {
    "structureAsSmiles": "O=C(NC1CCN(Cc2ccc(OC(F)(F)F)cc2)CC1)c1ccc(C(=O)N2CCC(Oc3ccc(S(=O)(=O)C4CC4)cc3)CC2)nc1",
    "systemUnderTest": "AMPK",
    "result": "< 500 nM"
  },
  {
    "structureAsSmiles": "COc1ccc(CN2CCC(NC(=O)c3ccc(C(=O)N4CCC(C(=O)c5ccc(S(C)(=O)=O)cc5)CC4)nc3)CC2)cc1",
    "systemUnderTest": "AMPK",
    "result": "1000 to 5000 nM"
  },
  {
    "structureAsSmiles": "CN1CCN(c2ccc(C(=O)C3CCN(C(=O)c4ccc(C(=O)NC5CCN(Cc6ccc(C#N)cc6)CC5)cn4)CC3)cc2)CC1",
    "systemUnderTest": "AMPK",
    "result": "< 500 nM"
  },
  {
    "structureAsSmiles": "COc1ccc(C(=O)C2CCN(C(=O)c3ccc(C(=O)Nc4ccc(S(=O)(=O)c5ccc(F)cc5)nc4)cn3)CC2)cc1",
    "systemUnderTest": "AMPK",
    "result": "1000 to 5000 nM"
  },
  {
    "structureAsSmiles": "N#Cc1ccc(CN2CCC(NC(=O)c3ccc(C(=O)N4CCC(C(=O)c5cccs5)CC4)cn3)CC2)cc1",
    "systemUnderTest": "AMPK",
    "result": "< 500 nM"
  },
  {
    "structureAsSmiles": "O=C(Nc1ccccc1)c1ccc(C(=O)N2CCN(Cc3ccc(F)cc3)CC2)cn1",
    "systemUnderTest": "AMPK",
    "result": "5000 to 10000 nM"
  },
  {
    "structureAsSmiles": "COc1ccc(CC2CCN(C(=O)c3ccc(C(=O)NC4CCN(Cc5ccc(C#N)cc5)CC4)nc3)CC2)cc1F",
    "systemUnderTest": "AMPK",
    "result": "< 500 nM"
  },
  {
    "structureAsSmiles": "COc1ccc(CN2CCC(NC(=O)c3ccc(C(=O)N4CCC(C(=O)c5ccc(N6CCCC6)cc5)CC4)nc3)CC2)cc1",
    "systemUnderTest": "AMPK",
    "result": "< 500 nM"
  },
  {
    "structureAsSmiles": "N#Cc1ccc(CN2CCC(NC(=O)c3ccc(C(=O)N4CCC(Oc5ccc(S(F)(F)(F)(F)F)cc5)CC4)nc3)CC2)cc1",
    "systemUnderTest": "AMPK",
    "result": "< 500 nM"
  }
]
